Reported FACS median fluorescence values follow for various binders
- TESTED SYSTEM: T1, human CEACAM6, full-length, on cells (human, UniProt P40199 35-320)
- T1 construct: used both for transfected HeLa cells and for tumor cell lines that express CEACAM6 endogenously; also called TPP-4639; HeLa human CEACAM6
- T1 sequence: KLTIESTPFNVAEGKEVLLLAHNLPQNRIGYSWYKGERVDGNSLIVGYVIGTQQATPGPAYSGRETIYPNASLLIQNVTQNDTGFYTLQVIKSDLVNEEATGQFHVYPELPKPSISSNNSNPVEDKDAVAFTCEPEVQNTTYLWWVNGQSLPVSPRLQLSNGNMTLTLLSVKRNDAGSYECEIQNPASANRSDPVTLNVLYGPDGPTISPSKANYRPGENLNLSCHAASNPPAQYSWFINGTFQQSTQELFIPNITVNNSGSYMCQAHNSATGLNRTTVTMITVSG
- ASSAY OVERVIEW: FACS, transfected HeLa cells

BINDER	FACS median fluorescence
TPP-3707 (antibody, human IgG2, kappa, V domains shown, also called 090E-M007-A09-Mat2-hIgG2-hIgG2Kappa) VH: EVQLVESGGGLVQPGGSLRLSCAASGFTFSLYQMHWVRQAPGKGLEWVSWISFSGGNTGYADSVKGRFTISRDNSKNTLYLQMNSLRAEDTAVYYCARATGYSSPWYLDPWGQGTLVTVSS VL: DIQMTQSPSSLSASVGDRVTITCQASHEIDNYLNWYQQKPGKAPKLLIYDAYWSKTGVPSRFSGSGSGTDFTLTISSLQPEDIATYYCQGYDDLSVTFGGGTKVDIKR	1000 to 10000 medianfluorescence

*Q* Need FACS median fluorescence, item TPP-3308 (antibody, human IgG2, kappa, V domains shown, human IgG2 chimera; also called TPP-2971X1-hIgG2Kappa; hIgG2 chimera of TPP-2971) VH: QVTLKESGPGILQPSQTLSLTCSFSGFSLSTYGIGVGWIRQPSGKDLEWLAHIWWNDNKYYNTALKSRLTISKDTSNNQVFLKIASVDTADTATYYCARISLPYFDYWGQGTTLTVSS VL: DIVMTQSQKFMSTSVGDRVSITCKASQNVGTAVAWYQQKPGQSPKLLIYSASNRYTGVPDRFTGSGSGTDFTLTISNMQSEDLADYFCQQYSSYPLTFGAGTKLELKR
*A* 10 to 100 medianfluorescence

*Q* Let us now turn to TPP-3187 (antibody, mouse IgG1, V domains shown, murine hybridoma antibody, mouse IgG1; also called 792.15C4F4) VH: QVTLKESGPGILQPSQTLSLTCSFSGFSLTTYGIGVGWIRQPSGKGLEWLAHIWWNDNKYYNTALKSRLTISKDTSNNQVFLKIASVDTADTATYYCARISLPYFDYWGQGTTLTVSS VL: DIVMTQSQKFMSTSVGDRVSITCKASQNVGTAVAWYQQKPGQSPKLLIYSASNRYTGVPDRFTGSGSGTDFTLTISNMQSEDLADYFCQQYNNYPLTFGAGTKLELK
*A* 100 to 1000 medianfluorescence

*Q* Let us now turn to TPP-3323 (antibody, human IgG2, kappa, V domains shown, human IgG2 chimera; also called TPP-3187X1-hIgG2; hIgG2 chimera of TPP-3187) VH: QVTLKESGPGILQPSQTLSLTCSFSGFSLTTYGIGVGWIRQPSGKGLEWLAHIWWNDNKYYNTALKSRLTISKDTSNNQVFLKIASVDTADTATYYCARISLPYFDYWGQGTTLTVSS VL: DIVMTQSQKFMSTSVGDRVSITCKASQNVGTAVAWYQQKPGQSPKLLIYSASNRYTGVPDRFTGSGSGTDFTLTISNMQSEDLADYFCQQYNNYPLTFGAGTKLELKR
*A* 10 to 100 medianfluorescence
